Tested on: BT20
Test: normalised growth rate inhibition (GR value) relative to DMSO control (GR (1 = untreated growth, 0 = cytostasis, <0 = cytotoxic)); higher = less growth inhibition
Settings: 0.04 µM; 72 h
For each record, write down the corresponding normalised growth rate inhibition.

Prompt: Report normalised growth rate inhibition for CCc1cc(Nc2nccc(-c3c(-c4ccc(OC)c(C(=O)Nc5c(F)cccc5F)c4)nc4ccccn34)n2)c(OC)cc1N1CCC(N2CCN(S(C)(=O)=O)CC2)CC1
Response: 0.821

Prompt: Supply reported normalised growth rate inhibition belonging to this compound: Cc1[nH]c(/C=C2\C(=O)Nc3ccc(S(=O)(=O)N(C)c4cccc(Cl)c4)cc32)c(C)c1C(=O)N1CCN(C)CC1
Response: 1.06

Prompt: Identify the reported normalised growth rate inhibition for the following entry. COc1cc(N2CCC(N3CCN(C)CC3)CC2)ccc1Nc1ncc(Cl)c(Nc2ccccc2S(=O)(=O)C(C)C)n1
Response: 1.04

Prompt: Report normalised growth rate inhibition for COc1cc2ncnc(-n3nc(-c4ccccn4)nc3N)c2cc1OC
Response: 1.07

Prompt: # return recorded normalised growth rate inhibition for entry O=C(Nc1cccc(Nc2ncc(Br)c(NCCc3cnc[nH]3)n2)c1)N1CCCC1
Response: 0.896

Prompt: Using known records, supply normalised growth rate inhibition for CCn1c(-c2nonc2N)nc2c(C#CC(C)(C)O)ncc(OC[C@H]3CCCNC3)c21
Response: 0.818

Prompt: Report measured normalised growth rate inhibition; entry is CO[C@H]1C[C@@H]2CC[C@@H](C)[C@@](O)(O2)C(=O)C(=O)N2CCCC[C@H]2C(=O)O[C@H]([C@H](C)C[C@@H]2CC[C@@H](O)[C@H](OC)C2)CC(=O)[C@H](C)/C=C(\C)[C@@H](O)[C@@H](OC)C(=O)[C@H](C)C[C@H](C)/C=C/C=C/C=C/1C
Response: 0.54

FYI, the data here is from the supplement of paper PMC5662764.
